Examples of compounds with documented GI50 follow.
# System: SF-539 CNS
# assay name: NCI tumour cell line growth inhibition, 48 h

C[C@@]12CCC[C@@](C)(C(=O)O)C1CC[C@]13CC(=O)[C@](CO)(C1)[C@@H](O)CC32 (stereo not given in full) = > 100000 nM
CCOC(=O)/C=C/c1ccc(C#Cc2ccccc2)cc1 = 1540 nM
CC1CCN(C(=O)OCc2nc3nc(Cl)nc(N4CCOCC4)c3[nH]2)CC1 = 1110 nM
BrCc1cccc(C[P+](c2ccccc2)(c2ccccc2)c2ccccc2)c1 = 6050 nM

I am curious: what GI50 value has been reported for COc1ccc(-c2nsc3c2NC(=O)CC3c2cccc(OC)c2)cc1 (stereo not given) ?
1870 nM
